# Tested on: THRa homodimer (NR concentration 90 nM)
# assay.info: PBM binding z-score (relative to random genomic background probes); higher = stronger binding; sequences stand for … in GC…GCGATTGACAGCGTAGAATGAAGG
readout.label: PBM binding z-score

• AGTCAAAGTTCATCTAGGTAACGTTAGATATGCT = 0.114
• CCAGACAGGTGAAAGGCAACTCAGTCTGGTACGC = -0.701
• ACTAGCAGGCCAAGTTTGCGTCACTCAAACAAAG = -0.635
• TCTAGTAGATCAAAGGTTAAGAAAGCCGAAGCCT = -0.728
• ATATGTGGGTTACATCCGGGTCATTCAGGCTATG = 3.01
• CCGACTGGGGCAAGGTTACCAAAACGCACAGCCA = 0.178
• CGAACTAGTTCATCCAGGACAGTGAATACATTGA = 1.07
• TTACCAACGTGAAGGTCGTTGATCCCTCTGTAGA = 0.438
• ACAGACAGGTGGTGAAGGTAACTCAGGCTATCAT = 0.206
• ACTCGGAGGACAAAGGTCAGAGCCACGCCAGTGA = 0.686
• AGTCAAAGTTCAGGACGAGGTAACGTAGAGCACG = 1.71
• CCTACTGGGCCAAAAAGGTCATCGATGCCGATAA = 0.651
• TCTAGTTGTTCACGGAGGTCACACACGACGGGTA = 2.47
• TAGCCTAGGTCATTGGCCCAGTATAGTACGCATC = 0.907
• ACTCGGAGGACAAAGGTCAGATCTACGCCAGTGA = 0.695
• TAGCCTACGTCATGCGGGCCAGTATAGTGTCGGC = -0.856
• ACTTACGGGTCAACGAGGTTATGGCACGCGTATA = 1.32
• TCGAGTAGGTTACCAATTGGGCATTCAGCTTTCT = -0.446
• ATATGTAGGTTAAGGGACATTCAGGTTGGTTCGC = 0.815
• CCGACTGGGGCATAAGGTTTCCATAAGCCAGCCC = -0.206
• TCTCGCAGGCCAGAGGGTCACTCAAGAGGTACGG = 0.0741
• TAGCCTAGGTCATGCGGGCCATTATAGTGTCGGC = 1.17
• CCTAGCCGGCCAGGGTCACTCAAGCATTTCGCTT = 1.08
• ATTACAGGGTCATCGTAGGCCAGAGTACGCACAG = 1.78
• AGAAGGAGGTTACCAAAGATCAGGGAAACGCTTG = 0.244
• ACTATTAGTTGACTCAGGGCAACCGATACGACGC = 0.878

====

Recorded PBM binding z-score, one value per entry.
# Tested on: PPARa:RXRa (NR concentration 270 nM, RXRa partner concentration 90 nM)
# assay.info: PBM binding z-score (relative to random genomic background probes); higher = stronger binding; sequences stand for … in GC…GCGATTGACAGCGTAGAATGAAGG
readout.label: PBM binding z-score

• ACAGACAGGTGCTGAAGGTAACTCAGGCTATCAT = -0.462
• TTACAAAGGTGAAGGTCGTTGATCCCTCTGTAGA = 3.81
• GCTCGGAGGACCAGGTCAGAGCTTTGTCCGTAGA = 0.776
• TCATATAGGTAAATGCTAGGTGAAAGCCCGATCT = 1.4
• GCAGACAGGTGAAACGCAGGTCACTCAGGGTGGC = 2.57
• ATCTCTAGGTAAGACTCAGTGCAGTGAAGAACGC = -0.163
• AATACAGGGTAATCGTAGGCCAGAGTACGCACAG = 0.447
• CGGCAAAGTTCAACTAAGGTAACGTAAAGCACGC = 5.03
• ATACCAGGGTGATCGTGAGGTCGTTGATACTAAC = 1.82
• TCTTCTAGATCAACAGGAGGTTAAGAAAGATCGA = 1.24
• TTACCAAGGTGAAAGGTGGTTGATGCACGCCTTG = 2.81
• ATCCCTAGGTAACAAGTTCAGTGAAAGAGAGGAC = 0.724

====

Recorded PBM binding z-score, one value per entry.
# Tested on: LXRb:RXRa (NR concentration 270 nM, RXRa partner concentration 90 nM)
# assay.info: PBM binding z-score (relative to random genomic background probes); higher = stronger binding; sequences stand for … in GC…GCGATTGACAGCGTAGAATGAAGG
readout.label: PBM binding z-score

• TGAATGAGGATATAAGATCAGGGAACGTTGCAAA = -0.404
• TCTAGTTGGTCACAGAGGTCACACACGACGGGTA = 4.46
• CCGACTTGGGCATAAGGTTACCATAAGCCAGCCC = 0.516
• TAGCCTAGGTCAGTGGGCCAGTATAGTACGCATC = 0.274
• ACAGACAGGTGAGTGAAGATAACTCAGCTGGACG = -0.776
• CCTTACGGGTCAAGGTTATTGCACGGGTGGTACG = 2.96

====

# Test system: PPARg:RXRa 270nM:90nM, anti-RXR (NR concentration 270 nM, RXRa partner concentration 90 nM)
# assay.info: PBM binding z-score (relative to random genomic background probes); higher = stronger binding; sequences stand for … in GC…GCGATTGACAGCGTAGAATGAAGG
readout.label: PBM binding z-score

• ATAATGAGGTTAAGATCAGGGAAACAGAATACAT = 2.48
• GCTTACGGGTCAAAGGTTATAGAATGAATAGAAT = 9.46
• GCTTACGGGTCGAAGGTTATAGCATGAATAGAAT = 6.7
• AATACAGGGTCACTCGGCCAGAGTAGGTACGAAT = 5.81
• TATACAGGGTCAAGGGCCAGAGTACGAATGTCGA = 6.47
• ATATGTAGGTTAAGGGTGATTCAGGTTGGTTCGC = 8.2
• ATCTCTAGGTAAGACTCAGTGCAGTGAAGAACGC = 0.0157
• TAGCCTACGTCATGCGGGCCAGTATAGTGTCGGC = -0.778
• GATACAGGGTCAGCTAAAGGCCAGAGTATGGAAA = 3.58
• CCTACTGGGCCAAAGGTAATTGATTCCAATGCTC = 7.99
• TCACCAAGGTGAGCTGAGGTCGTTGATCCAACTC = 1.01
• ACTAATAGTTGACTTAGGGCAACCGATACGACGC = 0.054
• CCGACTGGGGCTTAAGGTTACCATAAGCCAGCCC = 1.99
• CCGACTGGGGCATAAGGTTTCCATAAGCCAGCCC = 1.75
• GCTGCTAGGTCAACTGATGGTCAGCTTAAGCTCG = 2.97
• TCTTGTAGATCAGGCAGGTTAAGAAAGCCTGAGT = 0.864
• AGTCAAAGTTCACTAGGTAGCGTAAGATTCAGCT = 6.17
• CTACCAAGGTGAACAAGGTCGTTGAATACTATTC = 1.39
• CCAGACTGGTGAGAAGGTAACTCAGCCTCGATTA = -0.117
• TCTTGTAGATCAAAGGTTAAGGAAGCCGAAGCCT = 7.99
• ACTTACGGGTAAACGAGGTTATAGCACGCGTATA = 0.752
• TTTTGTAGATCAACAGGAGGTTAAGAAAGATCGA = 1.25
• CCTACTTGGCCAAAAAGGTCATTGATGCCGATAA = 3.04
• TTACCCAGGTGAAAGGTCGTTGATGCACGCCTTG = 8.61
• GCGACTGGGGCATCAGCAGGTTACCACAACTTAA = 1.13
• CGAACTAGGTCATTGACAGAACAGTGAATAGTAA = 6.34
• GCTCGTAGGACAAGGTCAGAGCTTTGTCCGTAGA = 1.16
• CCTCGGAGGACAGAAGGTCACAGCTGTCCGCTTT = 2.62
• CCTATTAGTTGACAATAAGGGCAACCGAAGCTCG = 0.218
• CCTGCCAGGTCAATGGTCAGCTAAAGCAGCTCGC = 3.44
• ACAGATAGGTGAGTGAAGGTAACTCAGCTGGACG = 0.426
• GCATATCGGTAATACAAGGTGAAAGTCCGATTGT = 0.8
• TAACCTAGGTCATTCAGGGGCCAGTATAGAAAGC = 4.12
• ATATGTCGGTTATCGGGTCATTCAGTTTGCGCAT = 2.94
• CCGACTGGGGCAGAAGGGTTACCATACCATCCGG = 1.14
• TCACCAAGGTGAAGGTCGTTGATCCCTCTGTAGA = 3.66
• CAAACTAGGTCAAGCTCAAAGTCGGTTTGTGCCA = 7.36
• ACAGACAGGTGTGTGAAGGTAACTCAGCTGGACG = -0.0357
• GCTGCTAGGTCAGGTTGGTCCGCTAACGGGTACG = 0.764
• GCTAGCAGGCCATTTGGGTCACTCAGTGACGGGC = 0.402
• TCATATAGGTAAAGGTGTAAGTCGAACGATATGA = 3.83
• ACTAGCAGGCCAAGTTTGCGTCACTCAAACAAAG = -0.378
• GTACCAAGGTGGATAGGTCGTTGATGAGTAGGCG = 0.293
• CTCGAAAGGTCGGTTGAGGTGAGTACACGGATAA = 1.4
• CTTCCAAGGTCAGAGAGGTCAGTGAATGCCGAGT = 4.24
• CGGCCAAGGTCATAGGAGGTCAGTGAAGACAGAT = 5.6
• TTCCCAAGGTGAAGGTCGTTGATCCCTCTGTAGA = 1.81
• CCTTACGGGTCAAGGATATAGCACGGGTGGTACG = 3.92
• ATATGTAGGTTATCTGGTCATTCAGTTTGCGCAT = 4.79
• CAGCCTAGGTCAGGGGCAGTATAGGAGGAACGTT = 1.75
• CATTACGGGTCAAGGTTATAGCACGGGTGGTACG = 5.45
